methodNotes: Cytotoxicity against human HepG2 cells assessed as cell viability at 30 uM after 48 hrs by CellTiter 96 aqueous one solution assay relative to control
Type: cell-based
conditionContext: read-out: Activity
# maps each entry to its viability at 48 h, 30 µM
Number only, in %; omit the unit.

O=[N+]([O-])c1cc(CSc2nnc(-c3ccccc3)n2C2CCCCC2)cc([N+](=O)[O-])c1 87
COc1ccc(CSc2nnc(-c3cc([N+](=O)[O-])cc([N+](=O)[O-])c3)n2Cc2ccccc2)cc1 104
CCn1c(SCc2ccccc2)nnc1-c1cc([N+](=O)[O-])cc([N+](=O)[O-])c1 156

Challenge: Identify measured viability at 48 h, 30 µM associated with Cn1c(SCc2ccc(Br)cc2)nnc1-c1cc([N+](=O)[O-])cc([N+](=O)[O-])c1
Response given: 152

Challenge: Identify measured viability at 48 h, 30 µM associated with Cn1c(SCc2ccc(Cl)cc2)nnc1-c1cc([N+](=O)[O-])cc([N+](=O)[O-])c1
Response given: 104
